Data credit: the array DNA melting data of Ke et al. (doi:10.1101/2024.01.08.574731)

- assay-remarks: melting temperature; fluorescence melt of hairpins on a sequencing array, two-state fit, raised by 9.35 °C to match UV melts
- test-conditions: sodium 0.088 M
Categories are assigned from the measured Tm using these intervals: low group = under 50 °C, middle group = from 50 °C up to 60 °C, high group = 60 °C and over

Solved cases (6 shown):
| residues | class-label |
| --- | --- |
| GACAGCGAAAGCTAGGTC ((((((....)))..))) | low group |
| GCGAACGAAAGTTGGCGC ((((((....)))..))) | middle group |
| GCTGGGCGAAAGCCTTGC ((..(((....)))..)) | middle group |
| CGGCTACGGAAACGTCCG (((..(((....)))))) | low group |
| GATCGTACGACGATC ((((((...)))))) | middle group |
| GATCCGGAGTCGGATC ((((((....)))))) | middle group |

INPUT: Please let me know in which category the item GAGTGTGGAAACGCATTC ((.((.(....).)).)) belongs.
OUTPUT: low group

INPUT: Similarly, GGGATCGAAAGATATCCC ((((((....)))..))) ?
OUTPUT: low group

INPUT: Similarly, GTATCCGAAAGGAGTTAC ((((((....)))..))) ?
OUTPUT: low group

###

Provide the recorded folding enthalpy for the entries that follow.
- assay-remarks: folding enthalpy; higher = less favourable; fluorescence melt of hairpins on a sequencing array, two-state fit
- test-conditions: sodium 0.088 M
Numbers only, in kcal/mol.

Take a look at these entries with their results.
| residues | readout-number |
| --- | --- |
| GGGAGCGAAAGCTACCC ((((((....))).))) | -15.7 |
| GATCAACCGCTTGATC ((((((....)))))) | -34.4 |
| GCTACTGGAAACGGTAGC (((((.(....).))))) | -37.5 |
| GCAACAACGAAAGTTTGC (((..(((....)))))) | -25 |
| GCCAAACGAAAGTTCGGC (((.(((....))).))) | -36.8 |
| GACGTTGGAAACAATGTC (((.(((....))).))) | -37.3 |

Give one value of folding enthalpy per listed sequence.
1. GCTTTGCGAAAGCAGGGC ((..(((....)))..))
2. GATCCTGCTAAGGATC ((((((....))))))
3. CGAAAGCGGAAACGCTCG (((..(((....))))))
4. GTCCTGCCGAAAGGCGAC (((..(((....))))))
5. GCGAGGCGAAAGCAGCGC (((..((....))..)))
6. GCTAGGCGAAAGCCGCGC ((..(((....)))..))

OUTPUT:
[-20.1, -46.2, -18.2, -9.38, -29.9, -16.9]

###

- assay-remarks: melting temperature; fluorescence melt of hairpins on a sequencing array, two-state fit, raised by 9.35 °C to match UV melts
- test-conditions: sodium 0.088 M
outcome-measure: Tm
Entry format: amount then unit.

Take a look at these entries with their results.
| residues | Tm |
| --- | --- |
| GTACGACGAAAGTCATAC (((.(((....))).))) | 39.4 °C |
| GTTCTCGGAAACGAGAGC (.(((((....))))).) | 48.2 °C |

Give one value of Tm per listed sequence.
1. GATCGAGTATCGATC ((((((...))))))
2. GGCCGCGAAAGCGCTGCC ((((((....)))..)))
3. GAGGCCGAAAGGCGCCTC ((((((....)))..)))
4. GGACCCGGAAACGAGTCC ((((.((....)).))))
5. GATCACTTAGGTGATC ((((((....))))))
6. GCTGGTACGAAAGTAAGC (((..(((....))))))

OUTPUT:
1: 59.6 °C; 2: 56.5 °C; 3: 42 °C; 4: 49.3 °C; 5: 57.6 °C; 6: 34.2 °C

Give one value of Tm per listed sequence.
1. GTAGGCGAAAGCCGATAC ((((((....)))..)))
2. GCAGATGGAAACATTTGC (((.(((....))).)))
3. GCAAGCGAAAGCTCGTGC ((((((....)))..)))
4. GGACTAGAAATAGTCC ((((((....))))))
5. CGAAAGCGGAAACGCTCG (((..(((....))))))
6. GATCAAGGCTTGATC ((((((...))))))
7. GATCCTTCCAAGGATC ((((((....))))))

OUTPUT:
1: 41.5 °C; 2: 44.5 °C; 3: 37.4 °C; 4: 52.9 °C; 5: 43.5 °C; 6: 47.8 °C; 7: 55.3 °C

Give one value of Tm per listed sequence.
1. GCCAGGCGAAAGCCCAGC ((..(((....)))..))
2. GAGAGGGGAAACCCCCTC (((.(((....))).)))
3. GAGCAGGCGAAAGCCCTC (((..(((....))))))
4. GATCACGAAAGTGACATC ((((((....)))..)))
5. GATCCGAACCCGGATC ((((((....))))))
6. GCGCGGGGAAACCCACGC (((.(((....))).)))

OUTPUT:
["40.2 °C", "47.9 °C", "31.7 °C", "30 °C", "54.8 °C", "61.6 °C"]

Give one value of Tm per listed sequence.
1. GATCACGAAAGTGGGATC ((((((....)))..)))
2. GGGTAACGAAAGTTTCCC (((.(((....))).)))
3. GGCAACGGAAACATTGCC (((((.(....).)))))

OUTPUT:
["38 °C", "50.3 °C", "45.1 °C"]

INPUT: Item GCTAACGAAAGTTAAAGC ((((((....)))..))) has what recorded Tm?
OUTPUT: 36.7 °C

###

- assay-remarks: melting temperature; fluorescence melt of hairpins on a sequencing array, two-state fit, raised by 9.35 °C to match UV melts
- test-conditions: sodium 0.088 M
Label True when Tm is at or above 40 °C; otherwise label False.

Solved cases (6 shown):
| residues | class-label |
| --- | --- |
| GATCTGCCAACAGATC ((((((....)))))) | True |
| GCACCTGGAAACAGACGC ((..(((....)))..)) | False |
| AATTGGAAACAATT (((((....))))) | False |
| GTAAGGCGAAAGCCGTAC (((.(((....))).))) | True |
| GCGACGATCGC ((((...)))) | True |
| GTGTCCGAAAGGATGCAC ((((((....)))..))) | True |

INPUT: Hi team, for GAGTGGGAAACCACTC ((((((....)))))) , is the recorded Tm at or above 40 °C?
OUTPUT: True

INPUT: Similarly, GGTGTTGAAAAACACC ((((((....)))))) ?
OUTPUT: True

INPUT: Similarly, GAGCCCGAAAGGGCCCTC ((((((....)))..))) ?
OUTPUT: True

INPUT: Similarly, GGTAACGGAAACGTTACC (((((((....))))))) ?
OUTPUT: True

INPUT: Similarly, GCCCCTACGAAAGTAGGC (((..(((....)))))) ?
OUTPUT: False

INPUT: Similarly, GAATACCGAAAGGTCTTC (((.(((....))).))) ?
OUTPUT: False

INPUT: Similarly, GATCTACAATAGATC ((((((...)))))) ?
OUTPUT: False

INPUT: Similarly, GCAGAACGAAAGTTATGC (((.(((....))).))) ?
OUTPUT: True

INPUT: Similarly, GATTCCGGAAACAGAATC (((((.(....).))))) ?
OUTPUT: False

INPUT: Similarly, GATTTCGGAAACGAGATC (((.(((....))).))) ?
OUTPUT: True

INPUT: Similarly, GGGGTAGGAAACTATCCC (((.(((....))).))) ?
OUTPUT: True

###

- assay-remarks: melting temperature; fluorescence melt of hairpins on a sequencing array, two-state fit, raised by 9.35 °C to match UV melts
- test-conditions: sodium 0.088 M
Categories are assigned from the measured Tm using these intervals: low (below 40 °C), mid (40 °C to below 50 °C), high (50 °C or more)

| residues | class-label |
| --- | --- |
| GGACGGGGAAACTCGTCC (((((.(....).))))) | high |
| GGCAGCGGAAACACCGCC (((.(.(....).).))) | low |
| GACGCCGAAAGGCCGTC ((((((....))).))) | high |
| GATCAAAGGTTTGATC ((((((....)))))) | mid |

INPUT: Please let me know in which category the item GCTTGTGGAAACACGAGC (((.(((....))).))) belongs.
OUTPUT: high

INPUT: Similarly, GATCAACCGCTTGATC ((((((....)))))) ?
OUTPUT: mid

INPUT: Similarly, GAATCTCCGAAAGGATTC (((..(((....)))))) ?
OUTPUT: low

INPUT: Similarly, GATCAGGGAAACTTGATC (((((.(....).))))) ?
OUTPUT: low

INPUT: Similarly, GTGAAAGGAAACCTTCAC (((((.(....).))))) ?
OUTPUT: low

INPUT: Similarly, GGGGAGACGAAAGTCCCC (((..(((....)))))) ?
OUTPUT: high
